Values compiled from PubChem BioAssay AID2060901.

# Tested on: 422866-222-R5-J1-PDC complex spheroids viability;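 further: spheroids exposed to compounds for 7 days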
# Assay Summary: Anticancer human tumor 422866-222-R5-J1-PDC patient-derived pancreatic adenocarcinoma cell line growth inhibition [RAS]
# Settings: second compound 0.1 µM; first compound 0.316 µM; stronger effect = lower value
viability, T/C vs 20%: less than gives True; not less than gives False.

{"columns": ["Molecule", "System Under Test", "Class Name"],
 "data": [
  ["CCC(CC)c1cc(NC2CCC(N)C2)n2nccc2n1 (stereo not given) + C=CC(=O)N1CCN(c2nc(OCC3CCCN3C)nc3c(F)c(-c4nc(N)cc(C)c4C(F)(F)F)c(Cl)cc23)C(C)C1", "422866-222-R5-J1-PDC complex spheroids viability", "False"],
  ["NC1c2ccccc2OC12CCN(c1cnc3c(N4CCCc5ncccc54)n[nH]c3n1)CC2 (stereo not given) + C#Cc1c(F)ccc2cc(O)cc(-c3ncc4c(N5CC6CCC(C5)N6)nc(OCC56CCCN5CC(F)C6)nc4c3F)c12", "422866-222-R5-J1-PDC complex spheroids viability", "False"],
  ["CC(C)NCC(C(=O)N1CCN(c2ncnc3c2C(C)CC3O)CC1)c1ccc(Cl)cc1 (stereo not given) + C=CC(=O)N1CCN(c2nc(OCC3CCCN3C)nc3c(F)c(-c4nc(N)cc(C)c4C(F)(F)F)c(Cl)cc23)C(C)C1", "422866-222-R5-J1-PDC complex spheroids viability", "True"],
  ["C[C@@H](NC(=O)c1ncnc(N)c1Cl)c1ncc(C(=O)Nc2cc(C(F)(F)F)c(Cl)cn2)s1 + C=CC(=O)N1CCN(c2nc(OCC3CCCN3C)nc3c(F)c(-c4nc(N)cc(C)c4C(F)(F)F)c(Cl)cc23)C(C)C1", "422866-222-R5-J1-PDC complex spheroids viability", "False"],
  ["CCN1CCN(Cc2ccc(Nc3ncc(F)c(-c4cc(F)c5nc(C)n(C(C)C)c5c4)n3)nc2)CC1 + C#Cc1c(F)ccc2cc(O)cc(-c3ncc4c(N5CC6CCC(C5)N6)nc(OCC56CCCN5CC(F)C6)nc4c3F)c12", "422866-222-R5-J1-PDC complex spheroids viability", "False"]
]}
